System: PC-3
Experiment: Cytotoxicity against human PC-3 cells assessed as reduction in cell viability incubated for 48 hrs by MTT assay
Format: functional, cell-based
Settings: PC-3, 48 h
measurement label: IC50

INSERT INTO assay_data (compound, result) VALUES
  ('C/C=C/[C@@H]1[C@H]2C[C@@H](C)CC[C@@H]2C(C)=C[C@H]1C(=O)c1c(O)c(-c2ccc(O)cc2)c[nH]c1=O [ILICICOLIN H]', '> 50 µM'),
  ('CC[C@H](C)C[C@@H](C)/C=C(\C)[C@@H]1O[C@H](c2c(O)c(-c3ccc(O)cc3)cn(C)c2=O)CC=C1C', '> 50 µM'),
  ('CC[C@H](C)C[C@@H](C)/C=C(\C)[C@@H]1O[C@H](c2c(O)c(-c3ccc(O)cc3)cn(C)c2=O)CC[C@H]1CO', '> 50 µM');
